Note to self: these compounds have IC50 reported for human eIF4E protein (Homo sapiens) in various publications.

- compound: "O=C(O)C1CCN(c2nc(-c3ccc(Oc4ccccc4)cc3)cs2)C1 (stereo not shown)"
  IC50: "> 25 µM"
- compound: "O=C(O)C1CCN(c2nc(-c3ccc(Oc4ccccc4)cc3)c(-c3cccc4[nH]ccc34)s2)C1 (stereo not shown)"
  IC50: "5 to 25 µM"
- compound: "O=C(O)C1CC(CNc2nc(-c3ccc(-c4ccc(F)cc4)cc3)c(-c3cccnc3)s2)C1 (stereo not shown)"
  IC50: "> 25 µM"
- compound: "O=C(O)C1CN(c2nc(-c3ccc(-c4ccc(F)cc4)cc3)c(-c3cccnc3)s2)CCO1 (stereo not shown)"
  IC50: "> 25 µM"
- compound: "O=C(O)c1cc(-c2nc(-c3ccc(Cl)c(Cl)c3)cs2)ccc1-c1ccncc1"
  IC50: "8.5 µM"

// query For the record "O=C(NCc1cccc(C(F)(F)F)c1)c1ccc(-c2ccc(-c3nc(-c4ccc(Cl)c(Cl)c4)cs3)cc2C(=O)O)cc1" , what value of IC50 is listed for human eIF4E protein (Homo sapiens)?
// result 3.2 µM

// query Record "CC(=O)N1CCC(NC(=O)c2ccc(-c3ccc(-c4nc(-c5ccc(Cl)c(Cl)c5)cs4)cc3C(=O)O)cc2)CC1" : what is its IC50 with human eIF4E protein (Homo sapiens)?
// result 10 µM

// query Find the measured IC50: item O=C(O)C1CC(CNc2nc(-c3ccc(Oc4ccccc4)cc3)c(-c3cccnc3)s2)C1 (stereo not shown) , target or system human eIF4E protein (Homo sapiens).
// result > 25 µM

// query Query IC50 on human eIF4E protein (Homo sapiens) for "CC(C)Cc1sc(Nc2ncc(-c3cccs3)cc2C(=O)O)nc1-c1ccc(OCC(N)=O)cc1"
// result ≤ 0.5 µM

// query Missing value: IC50, human eIF4E protein (Homo sapiens), entry "O=C(O)c1cc(-c2nc(-c3ccc(Br)cc3)cs2)ccc1-c1ccccc1[N+](=O)[O-]" . Fill in?
// result 4 µM

// query Lookup: IC50 / human eIF4E protein (Homo sapiens) / "COCCOc1ccc(-c2nc(Nc3cc(-c4ccccc4)sc3C(=O)O)sc2CC(C)C)cc1"
// result 0.5 to 1 µM
